target: BCL6 (Homo sapiens (Human), UniProt P41182); experiment: Immunofluorescence high content imaging of BCL6 degradation in T47D cells; format: cell-based; conditions: T47D cells
IC50 values by entry

// solved cases for IC50 follow
compound	IC50
CNC(=O)COc1cc2cc(Nc3nc(N4CCN(CC5CCN(c6cccc(C(=O)NC7CCC(=O)NC7=O)[n+]6[O-])CC5)CC4)ncc3Cl)ccc2n(C(C)C)c1=O (stereo not drawn)	10 to 50 nM
CNC(=O)COc1cc2cc(Nc3nc(N4CCN(CC5(F)CCN(c6ccc7c(c6)C(=O)N(C6CCC(=O)NC6=O)C7=O)CC5)CC4)ncc3Cl)ccc2n(C)c1=O (stereo not drawn)	< 10 nM

Turning now to a further record.
// IC50 value for CNC(=O)COc1cc2cc(Nc3nc(N4CCC(CN5[C@H](C)CN(c6ccc(C(=O)NC7CCC(=O)NC7=O)c(OC)c6)C[C@@H]5C)CC4)ncc3Cl)ccc2n(C)c1=O (stereo partly drawn) : < 10 nM

* * *

target: BCL6 (Homo sapiens (Human), UniProt P41182); test: Immunofluorescence high content imaging of BCL6 degradation in T47D cells; assay type: cell-based; details: class symbols A-D, read-out: EC50 (nM)*
DC50 values by entry

// DC50 value for Cn1c(=O)cc(NC(C)(C)c2ncccn2)c2cc(Nc3nc(N4CCC(CN5CCN(c6ccc7c(c6)C(=O)N(C6CCC(=O)NC6=O)C7=O)CC5)CC4)ncc3Cl)ccc21 (stereo not drawn) [compound 156] : > 100 nM

// DC50 value for CNC(=O)COc1cc2cc(Nc3nc(N4CCC(OCCOCCOCCOCc5ccc(Oc6ccc7c(c6)CN(C6CCC(=O)NC6=O)C7=O)cc5)CC4)ncc3Cl)ccc2n(C)c1=O (stereo not drawn) [compound 135] : > 100 nM

// DC50 value for CNC(=O)COc1cc2cc(Nc3nc(N4CCC(c5cn(CCOCCOCCOCCOCCOCC(=O)N[C@H](C(=O)N6C[C@H](O)C[C@H]6C(=O)N[C@@H](C)c6ccc(-c7scnc7C)cc6)C(C)(C)C)nn5)CC4)ncc3Cl)ccc2n(C)c1=O [compound 117] : 10 to 50 nM

* * *

molecular target: BCL6 (Homo sapiens (Human), UniProt P41182); test: Immunofluorescence high content imaging of BCL6 degradation in T47D cells; format: cell-based; conditions: class symbols A-D, read-out: EC50 (nM)*
DC50 values by entry

// solved cases for DC50 follow
compound	DC50
CNC(=O)COc1cc2cc(Nc3nc(N4CCC(OCCCOc5ccc6c(c5)CN(C5CCC(=O)NC5=O)C6=O)CC4)ncc3Cl)ccc2n(C)c1=O (stereo not drawn)	50 to 100 nM
CN1C(=O)CCc2cc(Nc3cc(N4CCC(OCCOCCOCCOCCOCCOc5ccc6c(c5)CN(C5CCC(=O)NC5=O)C6=O)CC4)c([N+](=O)[O-])cc3Cl)ccc21 (stereo not drawn)	> 100 nM

Turning now to a further record.
// DC50 value for CN1C(=O)CCc2cc(Nc3cc(OC4CCN(C(=O)COCCOc5ccc6c(c5)C(=O)N(C5CCC(=O)NC5=O)C6=O)CC4)c([N+](=O)[O-])cc3Cl)ccc21 (stereo not drawn) : > 100 nM

* * *

molecular target: UniProt:P41182; assay: BCL6 TR-FRET assay (BCL6-Avitag-Biotin / BCoR-Cy5 peptide); assay type: binding; settings: class symbols A-D; read-out: IC50 (nM)***
observation-type: IC50

compound	IC50
CC(=O)COc1cc2cc(Nc3nc(N4CCN(C(=O)C5CCN(c6ccc7c(c6)C(=O)N(C6CCC(=O)NC6=O)C7=O)CC5)CC4)ncc3Cl)ccc2n(C)c1=O (stereo not drawn) [compound 163]	10 to 50 nM
CC(=O)COc1cc2cc(Nc3nc(N4CCC(OCCN5CCN(c6ccc7c(c6)CN(C6CCC(=O)NC6=O)C7=O)CC5)CC4)ncc3Cl)ccc2n(C)c1=O (stereo not drawn) [compound 128]	< 10 nM

Turning now to a further record.
// IC50 value for CNC(=O)COc1cc2cc(Nc3nc(N4CCC(OCCOCCOCCOCCCOc5ccc6c(c5)CN(C5CCC(=O)NC5=O)C6=O)CC4)ncc3Cl)ccc2n(C)c1=O (stereo not drawn) [compound 168] : 10 to 50 nM
